Data origin, for the record: ChEMBL document CHEMBL4715861

- Test system: MDA-MB-231
- assay.info: Cytotoxicity against human MDA-MB-231 cells
- Assay type: functional, cell-based
Define the label as T when IC50 is strictly less than 1 nM and as F in all remaining cases.

Req: IC50 strictly < 1 nM for this compound? CN[C@@H](C)C(=O)N[C@H](C(=O)N1CCC[C@H]1C(=O)Nc1cc2c(NC[C@H]3CC[C@H](CNc4ncnc5cc(OC)c(NC(=O)[C@@H]6CCCN6C(=O)[C@@H](NC(=O)[C@H](C)NC)C6CCCCC6)cc45)CC3)ncnc2cc1OC)C1CCCCC1
Resp: F

Req: Strictly below 1 nM in IC50? CN[C@@H](C)C(=O)N[C@H](C(=O)N1CCC[C@H]1C(=O)Nc1cc2c(NC[C@H]3CC[C@@H](CNc4ncnc5cc(OC)c(NC(=O)[C@@H]6CCCN6C(=O)[C@@H](NC(=O)[C@H](C)NC)C(C)(C)C)cc45)CC3)ncnc2cc1OC)C(C)(C)C
Resp: T

Req: # strict comparison: is reported IC50 < 1 nM? input = CN[C@@H](C)C(=O)N[C@H](C(=O)N1CCC[C@H]1C(=O)Nc1cc2c(OCC#CCOc3ncnc4cc(OC)c(NC(=O)[C@@H]5CCCN5C(=O)[C@@H](NC(=O)[C@H](C)NC)C(C)(C)C)cc34)ncnc2cc1OC)C(C)(C)C
Resp: T

Req: Strictly below 1 nM in IC50? CN[C@@H](C)C(=O)N[C@H](C(=O)N1CCC[C@H]1C(=O)Nc1cc2c(NC[C@H]3CC[C@H](CNc4ncnc5cc(OC)c(NC(=O)[C@@H]6CCCN6C(=O)[C@@H](NC(=O)[C@H](C)NC)C(C)(C)C)cc45)CC3)ncnc2cc1OC)C(C)(C)C
Resp: T

Req: Answer whether the compound CN[C@@H](C)C(=O)N[C@H](C(=O)N1CCC[C@H]1C(=O)Nc1cc2c(Nc3ccc(OCC#CC#CCOc4ccc(Nc5ncnc6cc(OC)c(NC(=O)[C@@H]7CCCN7C(=O)[C@@H](NC(=O)[C@H](C)NC)C(C)(C)C)cc56)cn4)nc3)ncnc2cc1OC)C(C)(C)C has IC50 strictly less than 1 nM
Resp: F
